assay_summary: DPPH radical scavenging activity
run_conditions: 30 min, 25 °C; dash = IC50 value not achieved
pIC50: −log10 of the molar value.
Catalogue of pIC50 values

compound="Cc1cnc(/C=C/c2cccc(O)c2)s1 [Compound 14]" result="< 3.60"

Lookup result for Cc1ccc(/C=C/c2cc(Cl)ccc2O)s1 [Compound 6] ; measured pIC50: < 3.60

Lookup result for Cc1cnc(/C=C\c2cc(Cl)ccc2O)s1 [Compound 10] ; measured pIC50: < 3.60

Data credit: paper PMC11242640
